# EC50 values compiled below
target_or_system: GLP1R (Homo sapiens, UniProt P43220)
Sequence (P43220 24-463): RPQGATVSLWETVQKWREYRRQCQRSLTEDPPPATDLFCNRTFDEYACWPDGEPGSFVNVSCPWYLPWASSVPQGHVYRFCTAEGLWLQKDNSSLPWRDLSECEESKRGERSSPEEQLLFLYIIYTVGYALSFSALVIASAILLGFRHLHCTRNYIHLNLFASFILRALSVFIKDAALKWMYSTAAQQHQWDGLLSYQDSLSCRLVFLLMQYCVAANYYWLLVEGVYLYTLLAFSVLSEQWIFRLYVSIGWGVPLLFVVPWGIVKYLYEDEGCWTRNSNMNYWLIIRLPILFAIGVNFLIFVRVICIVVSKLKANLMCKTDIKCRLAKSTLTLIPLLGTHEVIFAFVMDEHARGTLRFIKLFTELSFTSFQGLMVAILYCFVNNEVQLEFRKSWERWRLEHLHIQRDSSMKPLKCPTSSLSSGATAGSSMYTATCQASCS
procedure_details: GLP1R cAMP HTRF assay, HEK293/GLP-1R/CRE/Luc (HEK293T cells)
Type: cell-based
settings: read-out: EC50

// solved cases for EC50 follow
chemical_string | EC50
N#Cc1ccc(COc2nc(C3=CCN(Cc4nc5ccc(C(=O)O)cc5n4C[C@@H]4CCO4)CC3)ccc2F)c(F)c1 | ≤ 15 nM
O=C(O)c1ccc2nc(CN3CC=C(c4ccc5c(n4)N(Cc4ccc(Cl)cc4F)CCCO5)CC3)n(C[C@@H]3CCO3)c2c1 | > 1000 nM
O=C(O)c1ccc2nc(CN3CC=C(c4cncc(OCc5ccc(Cl)cc5F)n4)CC3)n(C[C@@H]3CCO3)c2c1 | ≤ 15 nM
O=C(O)c1ccc2nc(CN3CCC(c4cccc(OCc5ccc(C#CC6CC6)cc5F)c4)CC3)n(C[C@@H]3CCO3)c2c1 | ≤ 150 nM
N#Cc1ccc(COc2cc(C3=CCN(Cc4nc5ccc(C(=O)O)cc5n4C[C@@H]4CCO4)CC3)ccc2F)c(F)c1 | ≤ 15 nM

Entry O=C(O)c1ccc2nc(CN3CC=C(c4nccc(OCc5ccc(F)cc5F)n4)CC3)n(C[C@@H]3CCO3)c2c1 — recorded EC50 = ≤ 150 nM

Entry O=C(O)c1ccc2nc(CN3CC=C(c4cccc(OCc5cnccc5C(F)(F)F)n4)CC3)n(C[C@@H]3CCO3)c2c1 — recorded EC50 = ≤ 1000 nM

###

# Bmax (POC) values compiled below
target_or_system: GLP1R (Homo sapiens)
procedure_details: β-Arrestin-mediated GLP1R internalization assay (PathHunter engineered U2OS cells)
Format: cell-based
Parameters: host or cells: PathHunter engineered U2OS cells
settings: averaged Bmax, percentage of control GLP-1 (7-37), highest concentration tested
Report as a plain number; the unit POC is understood.

// solved cases for Bmax (POC) follow
chemical_string | target_or_system | Bmax (POC)
O=C(O)c1ccc2nc(CN3CC=C(c4ccc(F)c(OCc5ccc(Cl)cc5F)c4)CC3)n(C[C@@H]3CCO3)c2n1 | GLP1R (Homo sapiens) | 30.0
O=C(O)c1ccc2nc(CN3CC=C(c4cncc(OCc5ccc(Cl)cc5F)n4)CC3)n(C[C@@H]3CCO3)c2c1 | GLP1R (Homo sapiens) | 8.88

Entry CS(=O)(=O)NC(=O)c1ccc2nc(CN3CC=C(c4cccc(OCc5ccc(Cl)cc5F)n4)CC3)n(C[C@@H]3CCO3)c2c1 — recorded Bmax (POC) = 22.8

Entry O=C(O)c1ccc2nc(CN3CC=C(c4cccc(OCc5ccc(Cl)cc5F)c4)CC3)n(C[C@@H]3CCO3)c2c1 — recorded Bmax (POC) = 17.6

Entry O=C(O)c1ccc2nc(CN3CCC(c4cccc(OCc5ccc(Cl)cc5F)c4)CC3)n(C[C@@H]3CCO3)c2c1 — recorded Bmax (POC) = 14.1

Entry O=C(O)c1ccc2nc(CN3CC=C(c4cccc(OCc5ccc(C(F)(F)F)nc5)n4)CC3)n(C[C@@H]3CCO3)c2c1 — recorded Bmax (POC) = 19.1

Entry O=C(O)c1ccc2nc(CN3CCN(c4ccnc(OCc5ccc(Cl)cc5F)n4)CC3)n(C[C@@H]3CCO3)c2c1 — recorded Bmax (POC) = 27.03

Entry O=C(O)c1ccc2nc(CN3CC=C(c4cccc(OCc5ccc(-c6cccnc6)cc5)n4)CC3)n(C[C@@H]3CCO3)c2c1 — recorded Bmax (POC) = 15.4

Entry O=C(O)c1ccc2nc(CN3CC=C(c4cccc(OCc5ccc(C(F)(F)F)cc5)n4)CC3)n(C[C@@H]3CCO3)c2c1 — recorded Bmax (POC) = 27.4

Entry O=C(O)c1ccc2nc(CN3CCC(c4ccnc(OCc5ccc(Cl)cc5F)n4)CC3)n(C[C@@H]3CCO3)c2c1 — recorded Bmax (POC) = 21.3

###

target_or_system: UniProt P43220
procedure_details: GLP-1R/β-Arrestin recruitment assay (PathHunter eXpress GLP1R CHO-K1 β-Arrestin GPCR Assay)
Type: cell-based
Design: host or cells: PathHunter CHO-K1 GLP1R β-Arrestin cells
settings: averaged Bmax, percentage of control GLP-1 (7-37), highest concentration tested
Rule: Bmax (POC) below 30 POC gives Met. Equal to or above 30 POC gives Not met.

chemical_string | group_label
O=C(O)c1ccc2nc(CN3CC=C(c4ccnc(OCc5ccc(Cl)cc5F)n4)CC3)n(C[C@@H]3CCO3)c2c1 | Met
N#Cc1ccc(COc2cccc(C3=CCN(Cc4nc5ccc(C(=O)O)nc5n4C[C@@H]4CCO4)CC3)n2)c(F)c1 | Not met
O=C(O)c1ccc2nc(CN3CC=C(c4cccc(OCc5ccc(-n6ccnc6)cc5)n4)CC3)n(C[C@@H]3CCO3)c2n1 | Not met
O=C(O)c1ccc2nc(CN3CC=C(c4cccc(OCc5ccc(Cl)cc5F)c4)CC3)n(C[C@@H]3CCO3)c2n1 | Not met
N#Cc1ccc(COc2nc(C3=CCN(Cc4nc5ccc(C(=O)O)cc5n4C[C@@H]4CCO4)CC3)ccc2F)c(F)c1 | Not met

Item O=C(O)c1ccc2nc(CN3CCC(c4cncc(OCc5ccc(Cl)cc5F)n4)CC3)n(C[C@@H]3CCO3)c2c1 : Bmax (POC) beneath 30 POC, strictly?
Met

Item O=C(O)c1ccc2nc(CN3CC=C(c4cccc(OCc5ccc(Cl)cc5F)c4)CC3)n(C[C@@H]3CCO3)c2c1 : Bmax (POC) beneath 30 POC, strictly?
Met

Item O=C(O)c1ccc2nc(CN3CC=C(c4cccc(OCc5ccc(-c6cccnc6)cc5)n4)CC3)n(C[C@@H]3CCO3)c2c1 : Bmax (POC) beneath 30 POC, strictly?
Met

Item O=C(O)c1ccc2nc(CN3CCC(c4ccnc(OCc5ccc(Cl)cc5F)n4)CC3)n(C[C@@H]3CCO3)c2c1 : Bmax (POC) beneath 30 POC, strictly?
Met

###

target_or_system: GLP1R (Homo sapiens, UniProt P43220)
procedure_details: GLP1R cAMP assay, CHO cells stably expressing human GLP-1R
Assay type: cell-based
settings: CHO cells, mean ± spread, read-out: CHO cells EC50
Range-based classes on measured EC50: lowest (below 6 nM), middle (6 nM to below 100 nM), highest (100 nM or more)

compound | group_label
N#Cc1ccc(COc2nc(C3CCN(Cc4nc5ccc(C(=O)O)cc5n4C[C@@H]4CCO4)CC3)ccc2F)c(F)c1 [reference compound] | highest
N#Cc1ccc(COc2cccc(C3CCN(Cc4nc5ccc(C(=O)O)nc5n4C[C@@H]4CCO4)CC3)n2)c(F)c1 [reference compound] | lowest
O=C(O)c1ccc2nc(CN3CC=C(c4cccc(OCc5ccc(Cl)cc5F)c4)CC3)n(C[C@@H]3CCO3)c2c1 [drawing 67] | middle
N#Cc1ccc(COc2cccc(C3=CCN(Cc4nc5ccc(C(=O)O)nc5n4C[C@@H]4CCO4)CC3)n2)c(F)c1 [drawing 69] | lowest
O=C(O)c1ccc2nc(CN3CC=C(c4ccnc(OCc5ccc(Cl)cc5F)n4)CC3)n(C[C@@H]3CCO3)c2c1 [drawing 59] | middle

Please indicate the class for O=C(O)c1ccc2nc(CN3CCC(c4cccc(OCc5ccc(Cl)cc5F)n4)CC3)n(C[C@@H]3CCO3)c2c1 [reference compound] based on its EC50.
middle

Please indicate the class for O=C(O)c1ccc2nc(CN3CC=C(c4cncc(OCc5ccc(Cl)cc5F)n4)CC3)n(C[C@@H]3CCO3)c2c1 [drawing 61] based on its EC50.
highest

Please indicate the class for O=C(O)c1ccc2nc(CN3CCC(c4ccnc(OCc5ccc(Cl)cc5F)n4)CC3)n(C[C@@H]3CCO3)c2c1 [drawing 58, reference compound] based on its EC50.
middle

Please indicate the class for N#Cc1ccc(COc2cncc(C3CCN(Cc4nc5ccc(C(=O)O)cc5n4C[C@@H]4CCO4)CC3)n2)c(F)c1 [drawing 62, reference compound] based on its EC50.
highest

Please indicate the class for O=C(O)c1ccc2nc(CN3CCC(c4cccc(OCc5ccc(Cl)cc5F)c4)CC3)n(C[C@@H]3CCO3)c2c1 [drawing 66, reference compound] based on its EC50.
highest

Please indicate the class for N#Cc1ccc(COc2cncc(C3=CCN(Cc4nc5ccc(C(=O)O)cc5n4C[C@@H]4CCO4)CC3)n2)c(F)c1 [drawing 63] based on its EC50.
highest

Please indicate the class for O=C(O)c1ccc2nc(CN3CCC(c4cncc(OCc5ccc(Cl)cc5F)n4)CC3)n(C[C@@H]3CCO3)c2c1 [drawing 60, reference compound] based on its EC50.
highest

Please indicate the class for N#Cc1ccc(COc2cccc(C3=CCN(Cc4nc5ccc(C(=O)O)cc5n4C[C@@H]4CCO4)CC3)n2)c(F)c1 [drawing 55] based on its EC50.
lowest

Please indicate the class for O=C(O)c1ccc2nc(CN3CC=C(c4cccc(OCc5ccc(Cl)cc5F)n4)CC3)n(C[C@@H]3CCO3)c2c1 [drawing 65] based on its EC50.
lowest

###

# pEC50 values compiled below
target_or_system: GLP1R (Homo sapiens)
procedure_details: GLP1R cAMP HTRF assay, HEK293/GLP-1R/CRE/Luc (HEK293T cells)
Assay type: cell-based
settings: read-out: EC50
pEC50: −log10 of the molar value.

molecule | result
O=C(O)c1ccc2nc(CN3CCC(c4ccnc(OCc5ccc(Cl)cc5F)n4)CC3)n(C[C@@H]3CCO3)c2c1 [Compound 18] | ≥ 7.82
O=C(NS(=O)(=O)C(F)(F)F)c1ccc2nc(CN3CC=C(c4cccc(OCc5ccc(Cl)cc5F)n4)CC3)n(C[C@@H]3CCO3)c2c1 [Compound 173] | ≥ 6.00
O=C(O)c1ccc2nc(CN3CC=C(c4cccc(NC5CCCc6cc(Cl)ccc65)n4)CC3)n(C[C@@H]3CCO3)c2c1 (stereo partly shown) [Compound 104] | ≥ 6.00
O=C(O)c1ccc2nc(CN3CCN(c4cc(OCc5ccc(C#CC6CC6)cc5F)ccc4F)CC3)n(C[C@@H]3CCO3)c2c1 [Compound 198] | ≥ 6.00
O=C(O)c1ccc2nc(CN3CC=C(c4cccc(N5CCc6cc(Cl)ccc6C5)n4)CC3)n(C[C@@H]3CCO3)c2c1 [Compound 39] | ≥ 6.82

Item O=C(O)c1ccc2nc(CN3CC=C(c4ccnc(OCc5ccc(C#CC6CC6)cc5F)n4)CC3)n(C[C@@H]3CCO3)c2c1 [Compound 201] was tested on GLP1R (Homo sapiens); the reported pEC50 is ≥ 7.82

Item O=C(O)c1ccc2nc(CN3CC=C(c4cccc(OCc5ccc(C(F)(F)F)nc5)n4)CC3)n(C[C@@H]3CCO3)c2c1 [Compound 45] was tested on GLP1R (Homo sapiens); the reported pEC50 is ≥ 7.82

Item O=C(O)c1ccc2nc(CN3CC=C(c4cc(OCc5ccc(Cl)cc5F)ccc4F)CC3)n(C[C@@H]3CCO3)c2c1 [Compound 43] was tested on GLP1R (Homo sapiens); the reported pEC50 is ≥ 7.82

Item O=C(O)c1ccc2nc(CN3CC=C(c4cc(-c5ccccc5)cc(OCc5ccc(Cl)cc5F)n4)CC3)n(C[C@@H]3CCO3)c2c1 [Compound 109] was tested on GLP1R (Homo sapiens); the reported pEC50 is ≥ 6.00

The reported numbers originate from patent US10844049B2.
